# Tgt: T1, human recombinant soluble CD73 protein (human, UniProt P21589 27-547)
# T1 construct: also called huCD73; rhCD73
# T1 sequence: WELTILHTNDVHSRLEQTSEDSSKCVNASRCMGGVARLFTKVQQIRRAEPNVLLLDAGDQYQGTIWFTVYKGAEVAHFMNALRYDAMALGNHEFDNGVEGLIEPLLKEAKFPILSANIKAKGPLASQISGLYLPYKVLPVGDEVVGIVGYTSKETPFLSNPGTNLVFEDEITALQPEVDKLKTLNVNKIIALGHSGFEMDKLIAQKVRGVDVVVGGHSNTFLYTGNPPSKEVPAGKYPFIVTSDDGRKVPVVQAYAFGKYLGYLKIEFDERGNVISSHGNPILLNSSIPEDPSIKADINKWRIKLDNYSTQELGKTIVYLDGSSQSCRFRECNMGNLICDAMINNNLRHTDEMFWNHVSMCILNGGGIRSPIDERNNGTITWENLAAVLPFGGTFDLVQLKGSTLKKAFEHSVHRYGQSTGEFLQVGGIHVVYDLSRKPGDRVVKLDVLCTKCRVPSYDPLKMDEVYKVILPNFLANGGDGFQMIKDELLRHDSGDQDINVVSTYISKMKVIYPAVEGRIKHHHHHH
# Assay comment: SPR, Ab captured on Protein A, soluble huCD73 as analyte
Rule: koff under 0.0001 s⁻¹ gives condition not met, otherwise condition met.

H3L2 (antibody, human IgG1, V domains shown) VH: QIQLVQSGAEVKKPGASVKVSCKASGYAFTSYNMYWVRQAPGQSLEWIGYIDPYNGGSSYNLTFKGKATITVDKSASTAYMELSSLRSEDTAVYYCARGYGNYKAWFAYWGQGTLVTVSS VL: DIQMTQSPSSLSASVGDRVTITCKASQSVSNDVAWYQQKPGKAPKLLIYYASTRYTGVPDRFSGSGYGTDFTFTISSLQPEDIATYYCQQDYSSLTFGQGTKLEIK	condition met
H4L3 (antibody, human IgG1, V domains shown) VH: QIQLVQSGAEVKKPGASVKVSCKASGYAFASYNMYWVRQAPGQSLEWIGYIDPYNGGSSYNLTFKGKATLTVDKSASTAYMELSSLRSEDTAVYYCARGYGNYKAWFAYWGQGTLVTVSS VL: DVQMTQSPSSLSASVGDRVTITCKASQSVSNDVAWYQQKPGKAPKLLIYYASTRYTGVPDRFSGSGYGTDFTFTISSLQPEDIATYYCQQDYSSLTFGQGTKLEIK	condition not met
H4L4 (antibody, human IgG1, V domains shown) VH: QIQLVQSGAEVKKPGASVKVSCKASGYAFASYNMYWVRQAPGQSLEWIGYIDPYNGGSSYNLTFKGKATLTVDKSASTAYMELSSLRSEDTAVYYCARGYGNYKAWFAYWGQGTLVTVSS VL: DVQMTQSPSSLSASVGDRVTITCKASQSVSNDVAWYQQKPGKAPKLLIYYASTRYTGVPDRFSGSGYGTDFTFTISSLQPEDIATYFCQQDYSSLTFGQGTKLEIK	condition not met
H2L2 (antibody, human IgG1, V domains shown) VH: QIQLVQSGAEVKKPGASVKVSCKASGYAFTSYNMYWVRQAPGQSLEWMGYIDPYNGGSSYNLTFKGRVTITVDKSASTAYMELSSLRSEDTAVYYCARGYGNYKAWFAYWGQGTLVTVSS VL: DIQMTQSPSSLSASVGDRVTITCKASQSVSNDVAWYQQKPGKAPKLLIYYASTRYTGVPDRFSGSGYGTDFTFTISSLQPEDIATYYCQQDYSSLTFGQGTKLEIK	condition met
H3L3 (antibody, human IgG1, V domains shown) VH: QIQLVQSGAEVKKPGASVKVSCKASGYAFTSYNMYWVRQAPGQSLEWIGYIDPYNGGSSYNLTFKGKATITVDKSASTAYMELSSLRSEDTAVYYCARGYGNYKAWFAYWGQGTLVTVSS VL: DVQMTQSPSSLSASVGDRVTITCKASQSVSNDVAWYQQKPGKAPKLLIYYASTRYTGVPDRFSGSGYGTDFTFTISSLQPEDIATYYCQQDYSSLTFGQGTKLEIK	condition met

Task: Threshold query (koff >= 0.0001 s⁻¹) on H3L4 (antibody, human IgG1, V domains shown) VH: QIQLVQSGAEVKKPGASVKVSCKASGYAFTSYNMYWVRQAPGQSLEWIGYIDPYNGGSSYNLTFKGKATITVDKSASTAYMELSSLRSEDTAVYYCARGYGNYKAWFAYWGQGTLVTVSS VL: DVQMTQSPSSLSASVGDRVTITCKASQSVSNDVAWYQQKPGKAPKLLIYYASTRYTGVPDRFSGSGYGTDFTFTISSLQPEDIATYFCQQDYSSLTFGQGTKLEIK
Output: condition not met

Task: # repeat for H2L1 (antibody, human IgG1, V domains shown) VH: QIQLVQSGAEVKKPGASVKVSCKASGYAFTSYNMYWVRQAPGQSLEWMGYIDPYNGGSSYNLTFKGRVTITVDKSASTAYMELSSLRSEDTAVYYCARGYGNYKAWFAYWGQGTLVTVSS VL: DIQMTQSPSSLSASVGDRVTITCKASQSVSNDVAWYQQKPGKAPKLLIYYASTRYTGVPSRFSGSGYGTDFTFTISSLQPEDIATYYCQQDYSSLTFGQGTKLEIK
Output: condition met

Task: Same again, this time with H4L2 (antibody, human IgG1, V domains shown) VH: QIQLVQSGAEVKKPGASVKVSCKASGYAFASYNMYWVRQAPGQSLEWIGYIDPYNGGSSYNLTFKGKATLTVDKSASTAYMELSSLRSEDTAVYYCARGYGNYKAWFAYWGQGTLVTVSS VL: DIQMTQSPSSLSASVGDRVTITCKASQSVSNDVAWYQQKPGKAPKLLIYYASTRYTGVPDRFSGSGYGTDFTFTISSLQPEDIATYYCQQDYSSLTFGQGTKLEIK
Output: condition not met

Task: Try H4L1 (antibody, human IgG1, V domains shown) VH: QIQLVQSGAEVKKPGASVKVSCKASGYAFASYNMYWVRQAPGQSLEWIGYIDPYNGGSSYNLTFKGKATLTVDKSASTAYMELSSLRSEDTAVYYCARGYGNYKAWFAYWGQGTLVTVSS VL: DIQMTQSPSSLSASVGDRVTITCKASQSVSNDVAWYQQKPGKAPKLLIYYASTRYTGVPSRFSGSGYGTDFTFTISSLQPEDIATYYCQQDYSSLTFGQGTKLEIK next.
Output: condition met

Task: Next binder: H0L0 (antibody, human IgG1, V domains shown, variable-domain limits counted by alignment with H1 and L1) VH: QVQLVQSGAEVKKPGASVKVSCKASGYTFTSYNMYWVRQAPGQRLEWMGYIDPYNGGSSYNLTFKGRVTITRDTSASTAYMELSSLRSEDTAVYYCARGYGNYKAWFAYWGQGTLVTVSS VL: DIQMTQSPSSLSASVGDRVTITCKASQSVSNDVAWYQQKPGKAPKLLIYYASTRYTGVPSRFSGSGSGTDFTFTISSLQPEDIATYYCQQDYSSLTFGQGTKLEIK
Output: condition met
